- experimental target: T1, human MSLN-hFc protein (Acro, Cat. No. MSN-H5253) (human, UniProt Q13421 296-580)
- T1 construct: the method names the coated protein as human MSLN-hFc (Acro); also called human MSLN full-length protein
- T1 sequence (Q13421 other isoform, or with tags, fused parts or gaps limits assumed): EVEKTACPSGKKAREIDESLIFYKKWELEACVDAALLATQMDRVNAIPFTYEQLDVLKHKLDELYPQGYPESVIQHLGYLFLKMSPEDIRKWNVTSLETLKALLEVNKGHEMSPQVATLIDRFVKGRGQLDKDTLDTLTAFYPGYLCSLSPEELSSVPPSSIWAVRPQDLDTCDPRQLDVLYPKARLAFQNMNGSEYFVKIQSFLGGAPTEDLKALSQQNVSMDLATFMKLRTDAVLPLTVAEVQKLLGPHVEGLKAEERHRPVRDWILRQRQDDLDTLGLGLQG
- assay remarks: ELISA on coated antigen, antibody 1 nM
quantity measured: OD450 (OD450)
The reply should contain only the number, in OD450.

# input Which OD450 is reported for this binder? F7.33.24-H1 (scFv, not shown: small tags and cut ends, also called S009-F7.33.24 humanized antibody VH1 + VL1) scFv: EVQLVQSGAEVKKPGASVKVSCKASGYTFTSYWMHWVRQAPGQRLEWMGNVNPSNGGSNYNEKFKNRVTITVDKSASTAYMELSSLRSEDTAVYYCAPHYIGSRPGFAYWGQGTLVTVSSGGGGSGGGGSGGGGSDIVMTQSPDSLAVSLGERATINCKASQNVGTNIAWYQQKPGQSPKALIYSASYRYSGVPDRFSGSGSGTDFTLTISSLQAEDVAVYYCQQYNSYPLTFGGGTKVEIK
# output 0.59

# input Further, for F7.33.24-H4 (scFv, not shown: small tags and cut ends, also called S009-F7.33.24 humanized antibody VH1a + VL1) scFv: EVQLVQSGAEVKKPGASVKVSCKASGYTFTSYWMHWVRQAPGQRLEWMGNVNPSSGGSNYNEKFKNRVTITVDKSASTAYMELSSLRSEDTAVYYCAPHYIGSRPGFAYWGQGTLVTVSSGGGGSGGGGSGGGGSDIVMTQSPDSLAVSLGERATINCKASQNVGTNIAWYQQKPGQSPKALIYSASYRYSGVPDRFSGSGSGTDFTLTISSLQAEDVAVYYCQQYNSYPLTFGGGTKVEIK ?
# output 0.45

# input What do you have for F7.33.24-H3 (scFv, not shown: small tags and cut ends, also called S009-F7.33.24 humanized antibody VH1 + VL3) scFv: EVQLVQSGAEVKKPGASVKVSCKASGYTFTSYWMHWVRQAPGQRLEWMGNVNPSNGGSNYNEKFKNRVTITVDKSASTAYMELSSLRSEDTAVYYCAPHYIGSRPGFAYWGQGTLVTVSSGGGGSGGGGSGGGGSDIVMTQTPLSLSVTPGQPASISCKASQNVGTNIAWYQQKPGQSPQALIYSASYRYSGVPDRFSGSGSGTDFTLKISRVEAEDVGVYYCQQYNSYPLTFGGGTKVEIK ?
# output 0.91
